apparent KD of K4 kissing-loop reporter overview
- Tested on: K4 kissing-loop RNA reporter;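 further: bound reporter read as fluorescence of individual clusters on recovered sequencing chips by microscopy, with normalized cluster intensities fitted with a binding model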
- test: apparent KD of K4 kissing-loop reporter; higher = weaker reporter binding
- condition_set: Eterna round: R107; input ligand: theophylline 20 uM
Reply with just the number (in nM).

The cases that follow already have their apparent KD of K4 kissing-loop reporter on record.
AAAUUUAUUAUAUUUGAAUAAAUAUGUGAUACCAGACAUUUAUAAGUCCCUUGGCAGCACAAUGCAGUGAUGUUGCUUAUAAUAA [JR_SSTheophyA_Sub018]: 182
UAUAUAGUGACGGCCGCCACUAUAUUAAUGUUUUUGUUAGAGUGAUGUUUUGUUUAAUAUUUUUAUAGGACCGGGUUAUAUGUUA [zsqqxmullin]: 557

Let us examine a further case.
QUERY: Would you kindly share the measured apparent KD of K4 kissing-loop reporter for CAGAACUUAUAUAGAAACUAUAUAAGAGAUACCAGUCAAAUUAAAGACCCUUGGCAGCUCAGGCGAGUGAUGUUCGCAGGCUAAC [Astros-Gfrank-modulation#1] ?
RESULT: 106

###

- Tested on: MS2 coat protein
- test: apparent KD of MS2 coat protein; higher = weaker reporter binding
- condition_set: Eterna round: R107; input ligand: theophylline 20 uM
Assign class by apparent KD of MS2 coat protein: not lower than 80 nM means Fulfilled; lower than 80 nM means Not fulfilled.

UGUAUGUGAUCUGAUACCAGCGAUGAUAACCUGAGGAUCACCCUGGUAAGGCGAAAGCCUCGCCCUUGGCAGCAGAUCGCAUACU: Fulfilled

QUERY: Check if apparent KD of MS2 coat protein >= 80 nM (inclusive). Item: UUACAACUAAUGGAUACCAGCCGCGUGCUAGUGGUAGCAUACAUGAGGAUCACCCAUGUCGGCCCUUGGCAGCCACGCCCAUGCU [theeternabot_exclusion_MS2_Theo_B_2]
RESULT: Not fulfilled

QUERY: Test whether the sequence GGGCCCGGGCGCGAGCCCGGGCCCAUUGAUACCAGUGAUAUAUAGCGCCCUUGGCAGCGAAUCCUAACAUGAGGAUCACCCAUGU [5.I] records apparent KD of MS2 coat protein of 80 nM or higher.
RESULT: Not fulfilled

QUERY: Dear colleague, could you confirm whether GGGCCCGGGCGCGAGCCCGGGCCCAUUGAUACCAGUGAAAAUAUACGCCCUUGGCAGCGAAUCCUAACAUGAGGAUCACCCAUGU [5.A] has apparent KD of MS2 coat protein at or above 80 nM?
RESULT: Not fulfilled

QUERY: Textbook exercise: given the entry UGUAUGGACUGAAGGAGCGGAUGAUAACCUGAGGAUCACCCGGGUAAUAAGGCGAAAGCCAUCCAGGUAGGUCGCAGUCCAUACU , state whether its apparent KD of MS2 coat protein is greater than or equal to 80 nM.
RESULT: Fulfilled

###

This section presents sequences with their documented apparent KD of MS2 coat protein values.
- System: MS2 coat protein
- test: apparent KD of MS2 coat protein, switch OFF state (with FMN for OFF switches, without FMN for ON switches); designed switch direction (-1 OFF switch, 1 ON switch): 1; higher = weaker reporter binding
- condition_set: FMN input: 0 or 200 uM; Eterna round: R93 (includes R88 designs)
# output: bare number, implied unit nM

UUUAAUUAUACGAAGGAUAUCGGUAAUUAGACAUGAGGAUCACCCAUGUUAUAAGGUUCCAUAUUCGAGAAGGUCGCGGGUGAAC [JR_SS002_Sub509]: 18.2
AGAAAACAUGAGGAUCACCCAUGUAGAAAUAUGGGAGGAUAUACAAAGACGAAAGUCGAAGUAGAAGGCCUAAAGA [Mat - Same State 1 - Meechl mod - D123]: 58.7
AACAUACAUGAGGAUCACCCAUGUUAGGUGGGACUAGGAUAUCAAUCGAAAGUGUUAUAAUGAGAAGGAGUAUAAA [JR_SS001_Sub015]: 209
GACCGACAUGAGGAUCACCCAUGUCGGAAAAGGCAAGGAUAUGGGCGGUACCAAUUUCGGUCAGAAGGUGCAAAAG [Aatisri]: 14.6
AAACCACAUGAGGAUCACCCAUGUAAAAUAAUGGGAGGAUAUACUAGAAGAAACAAAAUAGUAGAAGGCUCAAAAA [75%, Ex sub1, 34]: 97.3

# evaluate next
QUERY: # input sequence: AGAAAUAAAGCAGAGGAUAUCCAAAAGAAAACAUGAGGAUCACCCAUGUAAAAGAAAAUAAAAUGGGAGAAGGCUGCAAAUAAAG ; wanted: its apparent KD of MS2 coat protein
RESULT: 23.9
